experiment: In vivo kinetics (absorption and excretion test) in mice; conditions: male, Slc ddY, mouse, serum, sc, 5 mg/kg
QUANTITY_KIND: concentration at 0.5 h (ng/mL)
# number only, unit ng/mL dropped from output

Summary for this molecule, CC[C@H]1OC(=O)C[C@@H](O)[C@H](C)[C@@H](O[C@@H]2O[C@H](C)C(O)C(N(C)C)C2O)[C@@H](CCN2CC(C)CC(C)C2)C[C@@H](C)C(=O)/C=C/C(C)=C/[C@@H]1CO[C@@H]1OC(C)C(O)[C@@H](OC)C1OC (stereo partly shown) : concentration at 0.5 h is 230

These entries and their values trace back to patent US6514946B1.
